molecular target: Alzheimer's Aβ 1-42 amyloid fibrils (Homo sapiens); construct: 1 mg of Aβ 1-42 (Bachem Inc., Torrance, Calif., USA) was dissolved; purchased Bachem Inc., Torrance, Calif., USA; assay: Disassembly/disruption of pre-formed Aβ 1-42 fibrils, Thioflavin T fluorometry; format: biochemical; conditions: Aβ 1-42:compound w/w 1:1; 100 μg/ml compound, 25 μM Aβ 1-42, overnight (~18 hours) at 37° C.; mean of triplicate ± SD; read-out: Fluorescence inhibition, %, at the Aβ 1-42:compound w/w ratio 1:1
Sequence (P05067 672-713): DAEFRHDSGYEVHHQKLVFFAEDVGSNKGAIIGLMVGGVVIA
Decide using inhibition at 100 µg/mL: a value greater than or equal to 60% is yes (1), a smaller one is no (0).

Lookup: Check the entry Oc1cccc(O)c1O : does inhibition at 100 µg/mL equal or exceed 60%?
Found: yes (1)

Lookup: Kindly determine if inhibition at 100 µg/mL recorded for O=C(O)c1cc(O)c(O)c(O)c1 is above or exactly 60%.
Found: no (0)

More entries:
Lookup: // inclusive: inhibition at 100 µg/mL at least 60%? input: NCCc1cc(O)c(O)c(O)c1 [5-Hydroxydopamine, 5-hydroxydopamine]
Found: yes (1)

Lookup: Does O=c1oc2c(O)c(O)cc3c(=O)oc4c(O)c(O)cc1c4c23 have a reported inhibition at 100 µg/mL of at least 60%?
Found: yes (1)

Lookup: Is reported inhibition at 100 µg/mL greater than or equal to 60% here: CCOC(=O)c1cc(O)c(O)c(O)c1 [Ethyl gallate, ethyl gallate]
Found: no (0)

Lookup: Is reported inhibition at 100 µg/mL greater than or equal to 60% here: Oc1ccccc1O
Found: yes (1)

Lookup: Is inhibition at 100 µg/mL for CCCOC(=O)c1cc(O)c(O)c(O)c1 [Propyl gallate, propyl gallate] at or above 60%?
Found: no (0)

Lookup: // inclusive: inhibition at 100 µg/mL at least 60%? input: Oc1ccc(O)c(O)c1
Found: yes (1)

Lookup: Hi team, for O=C(O)[C@]1(O)C[C@@H](O)[C@@H](O)[C@H](O)C1 , is the recorded inhibition at 100 µg/mL at or above 60%?
Found: no (0)
